Test: Pharmacokinetics of AS and DHA in rat plasma after single and multiple intravenous AS injections (automated blood sampler, LC-MS/MS)
Type: in vivo, Sprague-Dawley rats
Conditions: male, Sprague-Dawley, rat, plasma, iv, 20 mg/kg, WRAIR formulation (AS/0.3M PBS Buffer), 20 mg/kg i.v. daily for 3 days, male rats, Period 2, Day 1; read-out: AUC0–3 h
Property name: AUC(0-t)
Please state the value followed by its unit.

Quick one: AUC(0-t) of C[C@H]1[C@@H](O)O[C@@H]2O[C@@]3(C)CC[C@H]4[C@H](C)CC[C@@H]1[C@@]24OO3 [DHA, dihydroartemisinin] ?
1510 ng·h/mL

----------
Kindly supply the reported half-life values for the records listed here.
Experiment: Pharmacokinetics of AS and DHA in rat plasma after single and multiple intravenous AS injections (automated blood sampler, LC-MS/MS);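 further: blood drawn through a jugular vein catheter by an automated sampling system, plasma drug levels measured by LC-MS/MS with positive electrospray ionization against standard curves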
Type: in vivo, Sprague-Dawley rats
Settings: male, Sprague-Dawley, rat, plasma, iv, 20 mg/kg, Chinese formulation (AS/NaHCO3), 20 mg/kg i.v. daily for 3 days, male rats, Period 1, Day 3; read-out: t1/2 distribution (converted)
Please state the value followed by its unit.

Quick one: half-life of C[C@H]1[C@@H](O)O[C@@H]2O[C@@]3(C)CC[C@H]4[C@H](C)CC[C@@H]1[C@@]24OO3 [DHA, dihydroartemisinin] ?
5.4 min

Quick one: half-life of C[C@H]1[C@H](OC(=O)CCC(=O)O)O[C@@H]2O[C@@]3(C)CC[C@H]4[C@H](C)CC[C@@H]1[C@@]24OO3 [AS, artesunate] ?
6 min
